target_of_assay: T1, Cynomolgus monkey PD-1 expressed on CHO-K1 cells (CHO-K1/cyno PD-1) (cynomolgus monkey, UniProt B0LAJ3 25-288)
T1 construct: also called CHO-K1 cells overexpressing cynomolgus monkey PD-1
test_method_notes: FACS, CHO-K1/cyno PD-1 cells
Readings of pEC50 for the listed binders
Kindly note that pEC50 refers to -log10 of the concentration in mol/L and answer with the value alone.

Example entries and their recorded answers appear below.
PR000676 (antibody, human IgG4 S228P, kappa, V domains shown, Fully human recombinant H2L2 antibody, human IgG4, kappa light chain; also called 4004_1A7A1) VH: QIQLVESGGGVVQPGRSLRLSCAASGFTLSSYGMHWVRQAPGKGLEWVAVILSDGSNKYYADSVKGRFTISRDNSKNTLYLQMNSLRAEDTAVYYCADLGGDVWGQGTTVTVSS VL: EIVLTQSPATLSLSPGERATLSCRASQSVSSYLAWYQQKPGQAPRLLIYDASTRATGIPARFSGSGSGTDFTLTISSLEPEDFAVYYCQQRSNWPLTFGGGTKVEIKR: 8.08
PR000674 (antibody, human IgG4 S228P, kappa, V domains shown, Fully human recombinant H2L2 antibody, human IgG4, kappa light chain; also called 4004_12H9C1) VH: QVQLVESGGGVVQPGKSLRLSCTVSGLTFSDNGMHWVRQAPGRGLEWMSVIWYDGSKKYYADSVKGRFTISRDNSKNTLYLQMNNMRVEDTAVYYCATNSDYWGQGTLVTVSS VL: EIVLTQSPATLSLSPGERATLSCRASQSVSSYLAWYQQKPGQAPRLLIYDTSKRATGIPARFSGSGSGTDFTLTISSLEPEDFAVYYCQQHNNWIFTFGPGTKVDIKR: 8.63
PR000675 (antibody, human IgG4 S228P, kappa, V domains shown, Fully human recombinant H2L2 antibody, human IgG4, kappa light chain; also called 4004_19G8F2) VH: EVQLLESGGGLVQPGGSLRLSCVDSGFTFSSYAMTWVRQAPGKGLEWVSGISGSGYSTYYADSVKGRFTISRDNSKKTLYLQMNSLRAEDTAVYYCAELSLDYWGQGTLVTVSS VL: EIVLTQSPATLSLSPGERATLSCRASQSVSRYLAWYQQKPGQAPRLLMHDAANRATGLPARFNGSGSGTDFTLTISSLEPEDFAVYYCQQRNNWPLTFGGGTKVEIKR: 8.16
PR000673 (antibody, human IgG4 S228P, kappa, V domains shown, Fully human recombinant H2L2 antibody, human IgG4, kappa light chain; also called 4004_10H9A12) VH: QVQLVESGGGVVQPGRSLRLSCAASGFIFSNYGMHWVRQAPGKGLEWVAVIWYDGSKKYYGDSVKGRFTISRDNSKNTLYLQMNSLRDEDTAVYFCARNDDYWGQGTLVTVSS VL: EIVLTQSPATLSFSPGERATLSCRASQSVSSDLAWYQQKPGQAPSLLIYDASNRATGIPARFSGSGSGTDFTLTISSLEPEDFAVYYCHQRNNWPLTFGGGTKVEIKR: 8.69
PR000679 (antibody, human IgG4 S228P, kappa, V domains shown, Fully human recombinant H2L2 antibody, human IgG4, kappa light chain; also called 4004_6C11C6) VH: QVQLVQSGTEVKKPGSSVKVSCKASGGTFSSYAISWVRQAPGQGLEWMGGIIPIFDTVSSAQKFQGRVTITADKSTSTAYMELFSLRSEDTAVYYCARSPPYSSNWYQYFQHWGQGTLVTVSS VL: DIQMTQSPSTLSASVGDRVTITCRASQTISIWLAWYQQKPGKAPKLLIYKASSLESGVPSRFSGSGSGTEFTLTISSLQPDDFATYYCQQFNSYWTFGQGTKVEIKR: 8.80

Proceed to the following item.
Incoming: Look at this binder and give its reported pEC50. PR000150 (pembrolizumab analog) (antibody, human IgG4 S228P, kappa, V domains shown, Anti-PD-1 positive control; also called positive control antibody pembrolizumab) VH: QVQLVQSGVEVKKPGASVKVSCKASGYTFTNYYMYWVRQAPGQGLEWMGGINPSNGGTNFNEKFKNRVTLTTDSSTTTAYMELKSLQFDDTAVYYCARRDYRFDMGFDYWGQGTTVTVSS VL: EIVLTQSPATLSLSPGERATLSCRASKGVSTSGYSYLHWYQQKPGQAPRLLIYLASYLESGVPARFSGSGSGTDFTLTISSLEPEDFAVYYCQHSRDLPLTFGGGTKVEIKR
Outgoing: 9.00
